Species: Mus musculus
method.notes: Percentage toxicity measured as ataxia.
Type: organism-based
setup.conditions: in vivo
Please respond with reported Ataxia for every item in the list.
// units = %; emit number, no label

Ataxia for NCCCCCN1C(=O)CC2(CCCc3ccccc32)C1=O (centres undefined) is 0

CN(CCO)CCCCN1C(=O)CC2(CCCc3ccccc32)C1=O (centres undefined) yielded Ataxia of 0

Consider Cc1cccc(C)c1NC(=O)C(C)N (centres undefined) [TOCAINIDE] . Its measured Ataxia is 10

Entry CCN(CC)C(C)CCN1C(=O)CC2(CCCc3ccc(O)cc32)C1=O (centres undefined) ; Ataxia = 100

Data point: CCN(CC)CCCN1C(=O)CC2(CCCc3ccccc32)C1=O (centres undefined) ; Ataxia = 100

Ataxia for CCN(CC)C(C)CN1C(=O)CC2(CCCc3ccc(O)cc32)C1=O (centres undefined) is 50

Value of Ataxia reported for the molecule COc1ccc2c(c1)CCCC21CC(=O)N(CCCN(C)C)C1=O (centres undefined) is 100

According to the records, this molecule O=C1CC2(CCCc3ccccc32)C(=O)N1CCCN1CCOCC1 (centres undefined) displays Ataxia of 100

Notebook: CN(CCO)CCCN1C(=O)CC2(CCCc3ccccc32)C1=O (centres undefined) , Ataxia read as 0

Form: molecule = CCN(CC)CCCCCN1C(=O)CC2(CCCc3ccccc32)C1=O (racemic) ; Ataxia = 0

Form: molecule = CCN(CC)CCCN1C(=O)CC2(CCCc3ccc(C)cc32)C1=O (centres undefined) ; Ataxia = 0

Memo: CCN(CC)CCCN1C(=O)CC2(CCCc3ccc(O)cc32)C1=O (centres undefined) , reported Ataxia: 0

According to the records, this molecule CCN(CC)C(C)CCN1C(=O)CC2(CCCc3cc(OC)ccc32)C1=O (centres undefined) displays Ataxia of 60

Measured Ataxia of CN(CCO)CCN1C(=O)CC2(CCc3ccccc3C2)C1=O (centres undefined) : 100

Entry CCN(CC)CC(=O)Nc1c(C)cccc1C ; Ataxia = 100

Measured Ataxia, CCN(CC)CCCCN1C(=O)CC2(CCCc3ccc(O)cc32)C1=O (centres undefined) : 0

get_value(item= CCN(CC)C(C)CCN1C(=O)CC2(CCCc3ccccc32)C1=O (centres undefined) , readout=Ataxia) returns 100

// Ataxia lookup, molecule = CCN(CC)CCCN1C(=O)CC2(CCCc3cc(OC)ccc32)C1=O (centres undefined) , result: 100

Data point: CCN(CC)CCCCN1C(=O)CC2(CCCc3ccccc32)C1=O (centres undefined) ; Ataxia = 100

So, CN(CCO)CCN1C(=O)CC2(CCCc3ccccc32)C1=O (centres undefined) ? Its Ataxia was 0

The recorded Ataxia for COc1ccc2c(c1)CCCC21CC(=O)N(CCN(C)C)C1=O (centres undefined) is 100

Kindly note the recorded Ataxia for CCN(CC)CCCN1C(=O)CC2(CCCc3ccc(OC(C)C)cc32)C1=O (centres undefined) , which is 100

What the record says about CCN(CC)CCCCN1C(=O)CC2(CCCc3ccc(OC)cc32)C1=O (centres undefined) : Ataxia is 0

GET /value?item= CCN(CC)CCN1C(=O)CC2(CCCc3ccc(O)cc32)C1=O (centres undefined) &field=Ataxia returns 0

Per the record, CN(C)CCCCN1C(=O)CC2(CCCc3ccc(O)cc32)C1=O (centres undefined) has Ataxia of 0

// recorded Ataxia for CCN(CC)CCCCN1C(=O)CC2(CCCc3cc(O)ccc32)C1=O (centres undefined) : 0

Entry CCN(CC)CCCN1C(=O)CC(c2ccccc2)C1=O (centres undefined) , Ataxia reported as 0

Measured Ataxia, CC(C)Oc1ccc2c(c1)C1(CCC2)CC(=O)N(CCCN(C)C)C1=O (centres undefined) : 100

Value of measured Ataxia for the entry CCN(CC)CCCN1C(=O)CC2(CCCc3ccc(Cl)cc32)C1=O (centres undefined) : 100

So, CCN(CC)CCCCCN1C(=O)CC2(CCCc3ccccc32)C1=O (single isomer, unassigned; (-)) ? Its Ataxia was 100

What the record says about COCCN(C)CCCN1C(=O)CC2(CCCc3ccccc32)C1=O (centres undefined) : Ataxia is 100

So for O=C1NC(=O)C(C2CCc3ccccc3C2)N1 (centres undefined) , the logged Ataxia turned out to be 0

Notebook: CCN(CC)C(C)CN1C(=O)CC2(CCCc3ccccc32)C1=O (centres undefined) , Ataxia read as 100

Ataxia in this record for CCCC1(c2ccccc2)CC(=O)N(CCN(C)C)C1=O (centres undefined) : 100
